- Tested on: Huh-7 cells
- experiment: Alamar Blue cell confluency (cytotoxicity) in Huh-7 cells
- Format: cell-based
- measurement-context: 1 μM
Answer each item with its documented Confluency %.

Field: example entries. Status: answers known.
CCCCCCOc1ccc(-c2cc(=O)c3ccccc3[nH]2)cc1    105 ± 3%
Cc1ccc(-c2cc(O)c3ccccc3n2)cc1    163 ± 14%
COc1cc(NC(C)CCCN)c2ncccc2c1 (centres unmarked) [Primaquine, reference compound]    109 ± 10%
CCCCCCCc1cc(O)c2ccccc2n1    100 ± 1%

Can you share its Confluency %? I mean this compound: CCCCCCCCCCCc1cc(=O)c2ccccc2[nH]1 97 ± 6%

Values were extracted from paper PMC12631437.
